Cited source: paper PMC7184531

The following molecules are listed with their measured viability at 72 h values.
Assay: Cytotoxicity analysis
Assay type: cell-based
Details: mouse, 3T3-L1 cells
measured.endpoint: viability at 72 h (%)

{"molecule": "COc1ccc2oc3cccc(O)c3c(=O)c2c1 [Compound 4, 1-hydroxyl-7 methoxyxanthone]", "experimental.result": 102}
{"molecule": "C[C@H]1C(=O)CC[C@@H]2[C@]1(C)CC[C@H]1[C@@]2(C)CC[C@@]2(C)[C@@H]3CC(C)(C)CC[C@]3(C)CC[C@]12C", "experimental.result": 101}
{"molecule": "O=c1c2cc(O)ccc2oc2cccc(O)c12 [Compound 3, 1,7-dihydroxyxanthone]", "experimental.result": 105}
{"molecule": "CC(C)=CCC/C(C)=C/Cc1c(O)cc2oc3c(O)cccc3c(=O)c2c1O", "experimental.result": 93.1}
{"molecule": "CN(C)C(=N)N=C(N)N [Metformin, reference compound]", "experimental.result": 99.7}
